System: Th17 differentiation of CD4+ CD25− T cells
test_name: Th17 differentiation (IL-17+ IFNγ− cells) of T cells activated with TGFβ plus IL-6
Type: cell-based, mouse
particulars: Mus musculus, T-cell; in vitro; read-out: concentration for 50% inhibition of Th17 cell development
pIC50: −log10 of the molar value.
metric_name: pIC50

Entry O=C(CC1NCCCC1O)Cn1cnc2cc(Br)c(Cl)cc2c1=O (racemic) [HF] : reported pIC50 = ?
~8.52
